test system: SUM149PT spheroids with HUVEC/MSC, viability; test: Anticancer human tumor SUM149PT cell line growth inhibition [GQUAD]; conditions: second compound 1 µM; first compound 3.16 µM; active compounds read low
Known viability, T/C of a selection of molecules

Query viability, T/C for CCCS(=O)(=O)Nc1ccc(F)c(C(=O)c2c[nH]c3ncc(-c4ccc(Cl)cc4)cc23)c1F + CN(C)c1ccc(Nc2c3ccc(NC(=O)CCN4CCCC4)cc3nc3cc(NC(=O)CCN4CCCC4)ccc23)cc1
54.6%

Continuing:
Query viability, T/C for C=CC(=O)N1CCN(c2nc(=O)n(-c3c(C)ccnc3C(C)C)c3nc(-c4c(O)cccc4F)c(F)cc23)C(C)C1 (stereo not given) + CN(C)c1ccc(Nc2c3ccc(NC(=O)CCN4CCCC4)cc3nc3cc(NC(=O)CCN4CCCC4)ccc23)cc1
113%

Query viability, T/C for CC1COCCN1c1cc(C2(S(C)(=N)=O)CC2)nc(-c2ccnc3[nH]ccc23)n1 (stereo not given) + Cc1cnc(CNC(=O)c2c(=O)c3ccc(N4CCCN(C)CC4)nc3n3c2sc2ccccc23)cn1
37.1%

Query viability, T/C for CC1COCCN1c1cc(C2(S(C)(=N)=O)CC2)nc(-c2ccnc3[nH]ccc23)n1 (stereo not given) + Cc1[nH]c2ccc(F)cc2c1-c1nc2c3cccnc3c3ncccc3c2[nH]1
43.5%

Query viability, T/C for Cc1cccc(N(C)C(=O)C2C(O)CCN2c2nc(C)cc(C(F)(F)F)c2C#N)c1 (stereo not given) + Cc1[nH]c2ccc(F)cc2c1-c1nc2c3cccnc3c3ncccc3c2[nH]1
91.2%

###

test system: SUM149PT spheroids with HUVEC/MSC, viability; assay: Anticancer human tumor SUM149PT cell line growth inhibition [GQUAD]; conditions: second compound 3.16 µM; first compound 1 µM; active compounds read low;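 also: spheroids exposed to drugs for seven days before readout; percent viability relative to DMSO vehicle control taken as 100%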
Strictly below 20% in viability, T/C: 1 (yes). Otherwise: 0 (no).

viability, T/C under 20%? Item: COc1cccc2c1C(=O)c1c(O)c3c(c(O)c1C2=O)CC(O)(C(=O)CO)CC3OC1CC(N)C(O)C(C)O1 (stereo not given) + Cc1cnc(CNC(=O)c2c(=O)c3ccc(N4CCCN(C)CC4)nc3n3c2sc2ccccc23)cn1
1 (yes)

viability, T/C under 20%? Item: O=C(c1cc(Cc2n[nH]c(=O)c3ccccc23)ccc1F)N1CCN(C(=O)C2CC2)CC1 + Cc1[nH]c2ccc(F)cc2c1-c1nc2c3cccnc3c3ncccc3c2[nH]1
0 (no)

viability, T/C under 20%? Item: CC(=O)O[C@H]1C(=O)[C@@]2(C)[C@H]([C@H](OC(=O)c3ccccc3)[C@]3(O)C[C@H](OC(=O)[C@H](O)[C@@H](NC(=O)c4ccccc4)c4ccccc4)C(C)=C1C3(C)C)[C@]1(OC(C)=O)CO[C@@H]1C[C@@H]2O + Cc1[nH]c2ccc(F)cc2c1-c1nc2c3cccnc3c3ncccc3c2[nH]1
1 (yes)

viability, T/C under 20%? Item: C=CCn1c(=O)c2cnc(Nc3ccc(N4CCN(C)CC4)cc3)nc2n1-c1cccc(C(C)(C)O)n1 + Cc1cnc(CNC(=O)c2c(=O)c3ccc(N4CCCN(C)CC4)nc3n3c2sc2ccccc23)cn1
1 (yes)

Continuing:
viability, T/C under 20%? Item: CC1COCCN1c1cc(-c2ccnn2C)c2ccnc(-c3ccn[nH]3)c2n1 (stereo not given) + Cc1cnc(CNC(=O)c2c(=O)c3ccc(N4CCCN(C)CC4)nc3n3c2sc2ccccc23)cn1
0 (no)

###

Known viability, T/C of a selection of compounds
System: SUM149PT spheroids with HUVEC/MSC, viability
Assay: Anticancer human tumor SUM149PT cell line growth inhibition [GQUAD];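 also: spheroids exposed to drugs for seven days before readout; percent viability relative to DMSO vehicle control taken as 100%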
Conditions: second compound 3.16 µM; first compound 0.0999 µM; active compounds read low
Source text: DNA G-quadruplex Stabilizer Agents in Combinations in Complex Spheroids A high-throughput screen of multi-cell type tumor spheroids was designed to identify active combinations of DNA G-quadruplex stabilizer agents and targeted small molecules. […] Compounds. […] If the clinical Cmax for an agent had not been determined, the highest concentration tested was 10 microM. […]
Reply with just the number (in %).

State viability, T/C on SUM149PT spheroids with HUVEC/MSC, viability. Entry: Cn1ncnc1[C@H]1c2n[nH]c(=O)c3cc(F)cc(c23)N[C@@H]1c1ccc(F)cc1 + Cc1cnc(CNC(=O)c2c(=O)c3ccc(N4CCCN(C)CC4)nc3n3c2sc2ccccc23)cn1
35.3

State viability, T/C on SUM149PT spheroids with HUVEC/MSC, viability. Entry: CC[C@@]1(O)C(=O)OCc2c1cc1n(c2=O)Cc2cc3c(CN(C)C)c(O)ccc3nc2-1 + CN(C)c1ccc(Nc2c3ccc(NC(=O)CCN4CCCC4)cc3nc3cc(NC(=O)CCN4CCCC4)ccc23)cc1
47.9

Continuing:
State viability, T/C on SUM149PT spheroids with HUVEC/MSC, viability. Entry: Cc1[nH]c2ccccc2c1CCNCc1ccc(/C=C/C(=O)NO)cc1 + CN(C)c1ccc(Nc2c3ccc(NC(=O)CCN4CCCC4)cc3nc3cc(NC(=O)CCN4CCCC4)ccc23)cc1
72.5

State viability, T/C on SUM149PT spheroids with HUVEC/MSC, viability. Entry: CCc1c2c(nc3ccc(O)cc13)-c1cc3c(c(=O)n1C2)COC(=O)[C@]3(O)CC + Cc1[nH]c2ccc(F)cc2c1-c1nc2c3cccnc3c3ncccc3c2[nH]1
27.6

State viability, T/C on SUM149PT spheroids with HUVEC/MSC, viability. Entry: Cc1[nH]c2ccccc2c1CCNCc1ccc(/C=C/C(=O)NO)cc1 + Cc1cnc(CNC(=O)c2c(=O)c3ccc(N4CCCN(C)CC4)nc3n3c2sc2ccccc23)cn1
37.9

State viability, T/C on SUM149PT spheroids with HUVEC/MSC, viability. Entry: Cn1ncnc1[C@H]1c2n[nH]c(=O)c3cc(F)cc(c23)N[C@@H]1c1ccc(F)cc1 + Cc1[nH]c2ccc(F)cc2c1-c1nc2c3cccnc3c3ncccc3c2[nH]1
67.7

State viability, T/C on SUM149PT spheroids with HUVEC/MSC, viability. Entry: CCc1c2c(nc3ccc(O)cc13)-c1cc3c(c(=O)n1C2)COC(=O)[C@]3(O)CC + Cc1cnc(CNC(=O)c2c(=O)c3ccc(N4CCCN(C)CC4)nc3n3c2sc2ccccc23)cn1
21.9

###

system: SUM149PT spheroids with HUVEC/MSC, viability; assay: Anticancer human tumor SUM149PT cell line growth inhibition [GQUAD]; conditions: second compound 0.0316 µM; first compound 3.16 µM; active compounds read low;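 also: spheroids exposed to drugs for seven days before readout; percent viability relative to DMSO vehicle control taken as 100%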
Known viability, T/C of a selection of compounds
Reply with just the number (in %).

Some compounds with recorded viability, T/C:
Query viability, T/C for COc1cc(C2c3cc4c(cc3C(OC3OC5COC(C)OC5C(O)C3O)C3COC(=O)C23)OCO4)cc(OC)c1O (stereo not drawn) + Cc1cnc(CNC(=O)c2c(=O)c3ccc(N4CCCN(C)CC4)nc3n3c2sc2ccccc23)cn1
27.3

Query viability, T/C for C=CCn1c(=O)c2cnc(Nc3ccc(N4CCN(C)CC4)cc3)nc2n1-c1cccc(C(C)(C)O)n1 + Cc1[nH]c2ccc(F)cc2c1-c1nc2c3cccnc3c3ncccc3c2[nH]1
10.4

Continuing:
Query viability, T/C for COc1ccc([C@@H](O)c2cc(-c3ncnc4cc(N5CCOCC5)ccc34)c(F)cc2Cl)nn1 + Cc1cnc(CNC(=O)c2c(=O)c3ccc(N4CCCN(C)CC4)nc3n3c2sc2ccccc23)cn1
24.5

###

tested on: SUM149PT spheroids with HUVEC/MSC, viability; assay: Anticancer human tumor SUM149PT cell line growth inhibition [GQUAD]; details: second compound 0.1 µM; first compound 1 µM; active compounds read low;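 also: spheroids exposed to drugs for seven days before readout; percent viability relative to DMSO vehicle control taken as 100%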
value kind: viability, T/C (%)
Reply with just the number (in %).

Some molecules with recorded viability, T/C:
State viability, T/C on SUM149PT spheroids with HUVEC/MSC, viability. Entry: COc1ncnc(C2CC2)c1-c1ncc2cnn(Cc3ccc(-c4nc(C(F)(F)F)cn4C(C)C)cc3)c2n1 + CN(C)c1ccc(Nc2c3ccc(NC(=O)CCN4CCCC4)cc3nc3cc(NC(=O)CCN4CCCC4)ccc23)cc1
80.2

State viability, T/C on SUM149PT spheroids with HUVEC/MSC, viability. Entry: CC(C)n1c(=O)n(C)c2cnc3cc(F)c(-c4ccc(OCCCN5CCCCC5)nc4)cc3c21 + CN(C)c1ccc(Nc2c3ccc(NC(=O)CCN4CCCC4)cc3nc3cc(NC(=O)CCN4CCCC4)ccc23)cc1
95.7

State viability, T/C on SUM149PT spheroids with HUVEC/MSC, viability. Entry: O=C(NO)c1cnc(N2CCN(S(=O)(=O)c3ccc4ccccc4c3)CC2)nc1 + Cc1cnc(CNC(=O)c2c(=O)c3ccc(N4CCCN(C)CC4)nc3n3c2sc2ccccc23)cn1
0.15

Continuing:
State viability, T/C on SUM149PT spheroids with HUVEC/MSC, viability. Entry: CC1COCCN1c1cc(C2(S(C)(=N)=O)CC2)nc(-c2ccnc3[nH]ccc23)n1 (stereo unspecified) + Cc1[nH]c2ccc(F)cc2c1-c1nc2c3cccnc3c3ncccc3c2[nH]1
89.2

State viability, T/C on SUM149PT spheroids with HUVEC/MSC, viability. Entry: CC1COCCN1c1cc(-c2ccnn2C)c2ccnc(-c3ccn[nH]3)c2n1 (stereo unspecified) + Cc1cnc(CNC(=O)c2c(=O)c3ccc(N4CCCN(C)CC4)nc3n3c2sc2ccccc23)cn1
20.3

State viability, T/C on SUM149PT spheroids with HUVEC/MSC, viability. Entry: O=c1[nH]cc(F)c(=O)[nH]1 + CN(C)c1ccc(Nc2c3ccc(NC(=O)CCN4CCCC4)cc3nc3cc(NC(=O)CCN4CCCC4)ccc23)cc1
99.3

State viability, T/C on SUM149PT spheroids with HUVEC/MSC, viability. Entry: O=C(NO)c1cnc(N2CCN(S(=O)(=O)c3ccc4ccccc4c3)CC2)nc1 + CN(C)c1ccc(Nc2c3ccc(NC(=O)CCN4CCCC4)cc3nc3cc(NC(=O)CCN4CCCC4)ccc23)cc1
0.82

State viability, T/C on SUM149PT spheroids with HUVEC/MSC, viability. Entry: C=CC(=O)N1CCN(c2nc(=O)n(-c3c(C)ccnc3C(C)C)c3nc(-c4c(O)cccc4F)c(F)cc23)C(C)C1 (stereo unspecified) + Cc1[nH]c2ccc(F)cc2c1-c1nc2c3cccnc3c3ncccc3c2[nH]1
116

State viability, T/C on SUM149PT spheroids with HUVEC/MSC, viability. Entry: COc1cccc2c1C(=O)c1c(O)c3c(c(O)c1C2=O)CC(O)(C(=O)CO)CC3OC1CC(N)C(O)C(C)O1 (stereo unspecified) + Cc1[nH]c2ccc(F)cc2c1-c1nc2c3cccnc3c3ncccc3c2[nH]1
16.8

State viability, T/C on SUM149PT spheroids with HUVEC/MSC, viability. Entry: CC1COCCN1c1cc(-c2ccnn2C)c2ccnc(-c3ccn[nH]3)c2n1 (stereo unspecified) + Cc1[nH]c2ccc(F)cc2c1-c1nc2c3cccnc3c3ncccc3c2[nH]1
21.8

State viability, T/C on SUM149PT spheroids with HUVEC/MSC, viability. Entry: CC(C)(O)C1CCC(Nc2ccc3ncc(-c4cccc(C(F)(F)F)c4)n3n2)CC1 (stereo unspecified) + Cc1cnc(CNC(=O)c2c(=O)c3ccc(N4CCCN(C)CC4)nc3n3c2sc2ccccc23)cn1
43.9
